Record form. Attribute: MIC. Fill in for each entry.
tested on: MRSA 43300; assay: Antibacterial activity, NCCLS dilution method (Table 9); format: cell-based, S. aureus; settings: Staphylococcus aureus, MRSA, MRSA 43300; dilution method; labels marked a tested as a mixture of diastereomers; read-out: MRSA 43300 MIC

# COMPOUND, TEST SYSTEM, MIC
data = [
    ("COC(=O)c1c(C)c(Br)c2c(c1O)[C@]1(O)C(=O)c3cc4c(c(O)c3C(=O)[C@]1(OC)[C@H](O)C2)C(=O)C(Br)=C(N[C@H]1O[C@@H](C)[C@H](OC)[C@@H](O)[C@H]1OC)C4=O [Example 39]", "MRSA 43300", "2 µg/mL"),
    ("CO[C@@H]1[C@@H](O)[C@@H](OC)C(NC2=CC(=O)c3c(cc4c(c3O)C(=O)[C@]3(OC)[C@H](O)Cc5cc(C)c(C(=O)NCCO)c(O)c5[C@]3(O)C4=O)C2=O)O[C@H]1C (mixture of isomers) [Example 24]", "MRSA 43300", "32 µg/mL"),
    ("COC(=O)c1c(C)cc2c(c1OCC(=O)N1CCCCC1)[C@]1(O)C(=O)c3cc4c(c(O)c3C(=O)[C@]1(OC)[C@H](O)C2)C(=O)C=C(N[C@H]1O[C@@H](C)[C@H](OC)[C@@H](O)[C@H]1OC)C4=O [Example 12]", "MRSA 43300", "0.25 to 1 µg/mL"),
]

Next:
Param readout = MIC; param system = MRSA 43300; param query = CO[C@@H]1[C@@H](O)[C@@H](OC)C(NC2=CC(=O)c3c(cc4c(c3O)C(=O)[C@]3(OC)[C@H](O)Cc5cc(C)c(C(=O)NCCCc6ccccc6)c(O)c5[C@]3(O)C4=O)C2=O)O[C@H]1C (mixture of isomers) [Example 25] ; response: value 2 to 4 µg/mL

* * *

Record form. Attribute: MIC. Fill in for each entry.
system: MRSA 43300; test: Antibacterial activity, NCCLS dilution method (Table 9); type: cell-based, S. aureus; settings: Staphylococcus aureus, MRSA, MRSA 43300; dilution method; labels marked a tested as a mixture of diastereomers; read-out: MRSA 43300 MIC
One number for each entry, in µg/mL.

# MOLECULE, DATA VALUE
records = [
    ("COC(=O)c1c(C)cc2c(c1O)[C@]1(O)C(=O)c3cc4c(c(O)c3C(=O)[C@]1(OC)[C@H](O)C2)C(=O)C=C(N[C@H]1O[C@@H](C)[C@H](OC)C(=NO)[C@H]1OC)C4=O (single isomer, unassigned)", 0.06),
]

Next:
Entry `COC(=O)c1c(C)cc2c(c1OCC(=O)OCc1ccccc1)[C@]1(O)C(=O)c3cc4c(c(O)c3C(=O)[C@]1(OC)[C@H](O)C2)C(=O)C=C(N[C@H]1O[C@@H](C)[C@H](OC)[C@@H](O)[C@H]1OC)C4=O` has what MIC? 1

* * *

Record form. Attribute: MIC. Fill in for each entry.
Tested on: MRSA 43300
Assay: Antibacterial activity, NCCLS dilution method (Table 9)
Format: cell-based, S. aureus
Settings: Staphylococcus aureus, MRSA, MRSA 43300; dilution method; labels marked a tested as a mixture of diastereomers; read-out: MRSA 43300 MIC
Source text: NCCLS standards for antimicrobial susceptibility testing using the dilution method were followed. See: Performance Standards for Antimicrobial Susceptibility Testing; Fourteenth Informational Supplement. NCCLS Document M100-S14 (ISBN 1-56238-516-X), 2004. NCCLS, 940 West Valley Road, Suite 1400, Wayne, Pa. 19087-1898 USA, 2004; Methods for Dilution Antimicrobial Susceptibility Tests for Bacteria that Grow Aerobically; Approved Standard—Sixth Edition. […]
Numbers only, in µg/mL.

# COMPOUND, READOUT TYPE, UNITS OF MEASURE, DATA VALUE
rows = [
    ("CO[C@@H]1[C@@H](O)[C@@H](OC)C(NC2=CC(=O)c3c(cc4c(c3O)C(=O)[C@]3(OC)[C@H](O)Cc5cc(C)c(C(=O)NC6CCCCC6)c(O)c5[C@]3(O)C4=O)C2=O)O[C@H]1C (mixture of isomers)", "MIC", "µg/mL", 2),
]

Next:
Entry CO[C@@H]1[C@@H](O)[C@@H](OC)C(NC2=CC(=O)c3c(cc4c(c3O)C(=O)[C@]3(OC)[C@H](O)Cc5cc(C)c(C(=O)Nc6ccc(-c7ccccc7)cc6)c(O)c5[C@]3(O)C4=O)C2=O)O[C@H]1C (mixture of isomers) has what MIC? 4
